Attribution: the supplement of paper PMC10646978

Reported NF-kB reporter values for the following molecules.
# Tested on: RAW-Dual (murine macrophage reporter line)
# experiment: NF-kB reporter (SEAP) activity fold change vs agonist alone; higher = enhanced NF-kB activity
# testSettings: modulator concentration 10 µM; agonist: CpG ODN 1826 0.5 ug/mL
Quick one: just the number, no unit, thanks!

Examples from the recorded data:
> print(dat)
                                   molecule                        experimentaltarget  endpointvalue
1  Brc1ccc(-c2cc(-c3ccccc3)nc(N3CCOCC3)n2)cc1  RAW-Dual (murine macrophage reporter line)           0.81
2  Cc1cc(C)n(CCCN2C(=O)c3cccc4cccc(c34)C2=O)n1  RAW-Dual (murine macrophage reporter line)          0.926
3  CCS(=O)(=O)N1CC(CC#N)(n2cc(-c3ncnc4[nH]ccc34)cn2)C1  RAW-Dual (murine macrophage reporter line)          0.943
4  COC1(CNC(=O)C2CCN(S(C)(=O)=O)CC2)CCSC1 (centres undefined)  RAW-Dual (murine macrophage reporter line)          0.879
5  CCCc1nc2ccccc2c(NC(=O)CN2CCOCC2)c1CC.O=C(O)C(=O)O  RAW-Dual (murine macrophage reporter line)           1.01

Give the measured NF-kB reporter of CCN(CC)c1ccc(C=NNc2cc(N3CCOCC3)nc(N3CCOCC3)n2)cc1 . 0.894

Could you tell me which NF-kB reporter is on file for O=S(=O)(Cc1ccccc1)Nc1ccccn1 ? 0.951

What does the data say about its NF-kB reporter? Entry: c1ccc(CSc2nnc(-c3ccncc3)o2)cc1 1.08

Returns the measured NF-kB reporter for the input molecule. Input: O=C(O)c1cc(O)c2ccccc2n1 1.23

Dear colleague, I am looking for the recorded NF-kB reporter of the following molecule: CC1CC(=O)C2=C(C1)OC(N)=C(C#N)C2c1ccc(F)cc1 (centres undefined) 0.894
